# System: P. aeruginosa AUMC-Pa-6
# TEST PROTOCOL: microbe, parasite or virus in culture
# EXPERIMENTAL CONTEXT: strain AUMC-Pa-6; with D-11 at MICbc 4; unit not given
Positions of bridges follow the written chain, without caps; N, C: chain ends. Non-standard residues stand in square brackets, D forms with d. Residues, ends and D or L forms follow the SMILES beside them. *: point of attachment. X1 = CC[C@H](C)CCCCC(=O)*; Dab = NCC[C@H](N)C(=O)O
ASSAY ENDPOINT: MICac: MIC of the antibiotic in the combination

Request: Return reported MICac: MIC of the antibiotic in the combination; argument: "C[C@@H]1O[C@@H]1P(=O)(O)O"
Response: >128/>128

Request: Return reported MICac: MIC of the antibiotic in the combination; argument: "C[C@H]1COc2c(N3CCN(C)CC3)c(F)cc3c(=O)c(C(=O)O)cn1c23"
Response: 0.25/0.25

Request: Return reported MICac: MIC of the antibiotic in the combination; argument: "CC[C@H]1OC(=O)[C@H](C)[C@@H](O[C@H]2C[C@@](C)(OC)[C@@H](O)[C@H](C)O2)[C@H](C)[C@@H](O[C@@H]2O[C@H](C)C[C@H](N(C)C)[C@H]2O)[C@](C)(O)C[C@@H](C)C(=O)[C@H](C)[C@@H](O)[C@]1(C)O"
Response: 32

Request: Return reported MICac: MIC of the antibiotic in the combination; argument: "O=C(N[C@H](CO)[C@H](O)c1ccc([N+](=O)[O-])cc1)C(Cl)Cl"
Response: 4

Request: Return reported MICac: MIC of the antibiotic in the combination; argument: "CO[C@@H]1[C@@H](OC(N)=O)[C@@H](O)[C@H](Oc2ccc3c(O)c(NC(=O)c4ccc(O)c(CC=C(C)C)c4)c(=O)oc3c2C)OC1(C)C"
Response: >128/128

Request: Return reported MICac: MIC of the antibiotic in the combination; argument: "CCn1cc(C(=O)O)c(=O)c2ccc(C)nc21"
Response: 32

Request: Return reported MICac: MIC of the antibiotic in the combination; argument: CC[C@H](C)CCCCC(=O)N[C@@H](CCN)C(=O)N[C@H](C(=O)N[C@@H](CCN)C(=O)N[C@H]1CCNC(=O)[C@H]([C@@H](C)O)NC(=O)[C@H](CCN)NC(=O)[C@H](CCN)NC(=O)[C@H](CC(C)C)NC(=O)[C@@H](Cc2ccccc2)NC(=O)[C@H](CCN)NC1=O)[C@@H](C)O [Polymyxin B] (X1-[Dab]T[Dab][Dab][Dab][dF]L[Dab][Dab]T; lactam 4-C (inferred); N-terminus assumed)
Response: 0.25

Request: Return reported MICac: MIC of the antibiotic in the combination; argument: "CN(C)c1ccc(O)c2c1C[C@H]1C[C@H]3[C@H](N(C)C)C(O)=C(C(N)=O)C(=O)[C@@]3(O)C(O)=C1C2=O"
Response: 4

Request: Return reported MICac: MIC of the antibiotic in the combination; argument: "CO[C@H]1/C=C/O[C@@]2(C)Oc3c(C)c(O)c4c(O)c(c(/C=N/N5CCN(C)CC5)c(O)c4c3C2=O)NC(=O)/C(C)=C\C=C\[C@H](C)[C@H](O)[C@@H](C)[C@@H](O)[C@@H](C)[C@H](OC(C)=O)[C@@H]1C"
Response: 2

Request: Return reported MICac: MIC of the antibiotic in the combination; argument: CC1COc2c(N3CCN(C)CC3)c(F)cc3c(=O)c(C(=O)O)cn1c23 (centres unmarked)
Response: 0.5/0.5

Request: Return reported MICac: MIC of the antibiotic in the combination; argument: CC1(C)S[C@@H]2[C@H](NC(=O)C(C(=O)O)c3ccccc3)C(=O)N2[C@H]1C(=O)O (some centres unmarked)
Response: 128/128
